Catalogue of relative viability readings, one per entry.
test system: NCI-H1651; test: relative viability (nuclei count vs DMSO), 5 days (fraction); higher = more cells survive; details: first compound 0.002 µM

- Compound: "CCNC(=O)c1noc(-c2cc(C(C)C)c(O)cc2O)c1-c1ccc(CN2CCOCC2)cc1 [Luminespib] + CS(=O)(=O)CCNCc1ccc(-c2ccc3ncnc(Nc4ccc(OCc5cccc(F)c5)c(Cl)c4)c3c2)o1 [Lapatinib] (partner 2 µM)"
  Subject Of Test: "NCI-H1651"
  relative viability: 0.902
- Compound: "CCNC(=O)c1noc(-c2cc(C(C)C)c(O)cc2O)c1-c1ccc(CN2CCOCC2)cc1 [Luminespib] + CC1(C)CCC(c2ccc(Cl)cc2)=C(CN2CCN(c3ccc(C(=O)NS(=O)(=O)c4ccc(N[C@H](CCN5CCOCC5)CSc5ccccc5)c(S(=O)(=O)C(F)(F)F)c4)cc3)CC2)C1 [Navitoclax] (partner 0.5 µM)"
  Subject Of Test: "NCI-H1651"
  relative viability: 0.967
- Compound: "CCNC(=O)c1noc(-c2cc(C(C)C)c(O)cc2O)c1-c1ccc(CN2CCOCC2)cc1 [Luminespib] + N=C(N)NC(=N)NCCc1ccccc1 [Phenformin] (partner 250 µM)"
  Subject Of Test: "NCI-H1651"
  relative viability: 0.298
- Compound: "CCNC(=O)c1noc(-c2cc(C(C)C)c(O)cc2O)c1-c1ccc(CN2CCOCC2)cc1 [Luminespib] + Cc1nc(NC(=O)N2CCC[C@H]2C(N)=O)sc1-c1ccnc(C(C)(C)C(F)(F)F)c1 [Alpelisib] (partner 2 µM)"
  Subject Of Test: "NCI-H1651"
  relative viability: 0.899

====

Examples of compounds with documented relative viability follow.
test system: LC-2-ad; test: relative viability (nuclei count vs DMSO), 5 days (fraction); higher = more cells survive; settings: first compound 0.01 µM

- Compound: "Cc1cn(-c2cc(NC(=O)c3ccc(C)c(Nc4nccc(-c5cccnc5)n4)c3)cc(C(F)(F)F)c2)cn1 [Nilotinib] + O=C(c1cc(Cc2n[nH]c(=O)c3ccccc23)ccc1F)N1CCN(C(=O)C2CC2)CC1 [Olaparib] (partner 8 µM)"
  relative viability: 0.689
- Compound: "Cc1cn(-c2cc(NC(=O)c3ccc(C)c(Nc4nccc(-c5cccnc5)n4)c3)cc(C(F)(F)F)c2)cn1 [Nilotinib] + Cc1cc(Nc2cc(N3CCN(C)CC3)nc(Sc3ccc(NC(=O)C4CC4)cc3)n2)n[nH]1 [Tozasertib] (partner 0.1 µM)"
  relative viability: 0.382
- Compound: "Cc1cn(-c2cc(NC(=O)c3ccc(C)c(Nc4nccc(-c5cccnc5)n4)c3)cc(C(F)(F)F)c2)cn1 [Nilotinib] + CS(=O)(=O)CCNCc1ccc(-c2ccc3ncnc(Nc4ccc(OCc5cccc(F)c5)c(Cl)c4)c3c2)o1 [Lapatinib] (partner 2 µM)"
  relative viability: 1.05
- Compound: "Cc1cn(-c2cc(NC(=O)c3ccc(C)c(Nc4nccc(-c5cccnc5)n4)c3)cc(C(F)(F)F)c2)cn1 [Nilotinib] + CC(=O)Nc1cccc(-n2c(=O)n(C3CC3)c(=O)c3c(Nc4ccc(I)cc4F)n(C)c(=O)c(C)c32)c1 [Trametinib] (partner 0.02 µM)"
  relative viability: 0.967
- Compound: "Cc1cn(-c2cc(NC(=O)c3ccc(C)c(Nc4nccc(-c5cccnc5)n4)c3)cc(C(F)(F)F)c2)cn1 [Nilotinib] + CC(=O)c1c(C)c2cnc(Nc3ccc(N4CCNCC4)cn3)nc2n(C2CCCC2)c1=O [Palbociclib] (partner 0.5 µM)"
  relative viability: 0.561
- Compound: "Cc1cn(-c2cc(NC(=O)c3ccc(C)c(Nc4nccc(-c5cccnc5)n4)c3)cc(C(F)(F)F)c2)cn1 [Nilotinib] + CC(C)C[C@H](NC(=O)[C@H](Cc1ccccc1)NC(=O)c1cnccn1)B(O)O [Bortezomib] (partner 0.002 µM)"
  relative viability: 0.983
- Compound: "Cc1cn(-c2cc(NC(=O)c3ccc(C)c(Nc4nccc(-c5cccnc5)n4)c3)cc(C(F)(F)F)c2)cn1 [Nilotinib] + CC1(C)CCC(c2ccc(Cl)cc2)=C(CN2CCN(c3ccc(C(=O)NS(=O)(=O)c4ccc(N[C@H](CCN5CCOCC5)CSc5ccccc5)c(S(=O)(=O)C(F)(F)F)c4)cc3)CC2)C1 [Navitoclax] (partner 0.5 µM)"
  relative viability: 0.467
